assay: HepG2 cell cytotoxicity, dose response, cytotoxicity control for Shn3 inhibitor project, CellTiter-Glo, cherry-picked (AID 624134); format: functional, cell-based
Calls of active or inactive are those of the source.
Catalogue of molecules with associated AC50

Some solved cases for reference:
                                   molecule  reported_endpoint    recorded_value
0  Cc1cccnc1CN1CCN(C(=O)c2cc(COc3ccc4ncccc4c3)on2)CC1               AC50  7.57 µM (active)
1       O=C(OCn1ncc(Cl)c(Cl)c1=O)c1ccccc1Cl               AC50  27.3 µM (active)
2     Cn1nnnc1Sc1ncnc2scc(-c3ccc(Br)cc3)c12               AC50  19.2 µM (active)

Record summary for COc1ccccc1N1CCN(C(=O)C2CCCN(S(=O)(=O)c3ccc4c(c3)CCCN4C(C)=O)C2)CC1 (centres undefined) : reported AC50 = 50.9 µM (active)

====

assay: growth suppression of beta-catenin-knockout colon cells, dose response, cell-based, HCT116, human colon tumor (AID 1045); format: functional;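 note: HCT116 colon tumor cells with beta catenin knocked out; cells exposed to compound for 60 hours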
Active and inactive are the calls of the source.
Reported EC50 values follow for various compounds

Some compounds with recorded EC50:
                                   compound  reported_endpoint    recorded_value
0  O=C(NCc1ccco1)c1cccn2c(=O)c3cc4ccccc4cc3nc12               EC50  10.7 µM (active)
1  CCOc1ccc2nc(O)c(CN(Cc3cccs3)C(CC)c3nnnn3C(C)(C)CC)cc2c1 (centres undefined)               EC50  5.11 µM (active)
2  COc1ccc(NC(=O)C(C)Sc2nnc3c4c(nc(-c5ccc(OC)cc5)n23)CC(C)(C)OC4)cc1 (centres undefined)               EC50  58.9 µM (active)

Now let's try a different one.
Summary for this compound, O=C(OCn1ncc(Br)c(Br)c1=O)c1c(F)cccc1F : EC50 is 1.82 µM (active)

====

Parameter: IC50. Scope: all listed entries.
Biological target: Rac GTPase-activating protein 1 (Homo sapiens)
Sequence (Q9H0H5 whole entry): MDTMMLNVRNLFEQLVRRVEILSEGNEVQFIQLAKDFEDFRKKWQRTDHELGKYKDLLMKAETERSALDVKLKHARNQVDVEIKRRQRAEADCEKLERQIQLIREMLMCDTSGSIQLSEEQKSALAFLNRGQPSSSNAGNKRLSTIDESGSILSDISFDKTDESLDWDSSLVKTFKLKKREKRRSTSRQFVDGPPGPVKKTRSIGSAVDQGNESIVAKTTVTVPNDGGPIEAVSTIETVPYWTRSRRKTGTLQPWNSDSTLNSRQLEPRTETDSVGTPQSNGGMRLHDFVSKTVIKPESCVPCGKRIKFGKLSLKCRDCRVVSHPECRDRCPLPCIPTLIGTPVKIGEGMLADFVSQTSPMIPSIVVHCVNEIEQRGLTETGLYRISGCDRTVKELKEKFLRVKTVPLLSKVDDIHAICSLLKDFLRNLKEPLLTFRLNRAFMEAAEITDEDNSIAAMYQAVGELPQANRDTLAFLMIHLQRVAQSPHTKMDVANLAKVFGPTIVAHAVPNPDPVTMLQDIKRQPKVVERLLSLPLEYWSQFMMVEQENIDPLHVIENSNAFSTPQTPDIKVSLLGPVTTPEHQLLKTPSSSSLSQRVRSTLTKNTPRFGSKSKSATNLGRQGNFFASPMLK
Assay: MgcRacGAP GTPase-activating activity inhibitors, confirmation, biochemical, ADP Hunter fluorescence, primary and confirmatory (AID 624330)
Assay type: functional
Calls of active or inactive are those of the source.

In [3]: df
Out[3]:
                                   compound    recorded_value
0            Oc1ccc(-c2csc(NCc3ccco3)n2)cc1  22.1 µM (active)
1  CCN1CCN(C(S)=NCC2CCCO2)CC1 (stereo unspecified)   186 µM (active)
2  O=C(CSc1nnnn1C1CC1)N1CCN(c2ccc(O)cc2)CC1  30.8 µM (active)
3      Cc1nnc2ccc(Oc3ccc(-c4ccccc4)cc3)nn12  99.4 µM (active)

Please fill in: IC50 reported for COc1ccc(NC2CCCN(C(=O)c3ccc4[nH]c(C)c(C)c4c3)C2)cc1 (stereo unspecified) = 81.4 µM (active)

Noted for Cc1cc(-c2ccc(N)c(C)c2)ccc1N [ORTHOTOLIDINE] : its IC50 reads 12.2 µM (active)

====

Biological target: Sentrin-specific protease 8 (Homo sapiens);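 note: luminescence read-out of SENP8 inhibition, dose-response confirmation following an ultra-high-throughput screen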
Sequence (Q96LD8 whole entry): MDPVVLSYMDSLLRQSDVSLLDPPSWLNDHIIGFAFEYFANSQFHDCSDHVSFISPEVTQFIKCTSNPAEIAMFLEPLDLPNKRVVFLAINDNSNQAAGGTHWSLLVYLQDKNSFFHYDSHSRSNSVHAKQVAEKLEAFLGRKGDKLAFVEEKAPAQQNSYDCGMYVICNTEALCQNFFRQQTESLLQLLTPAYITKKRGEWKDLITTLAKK
Type: functional
The source made the active and inactive calls.
Answer with one of the outcomes given here: active, inactive

Req: Check the results log: what was the call for Cc1ccc(/C=N/OC(=O)c2nn(C)cc2Cl)cc1 ?
Resp: active

Req: # lookup: test call for COc1cccc(-c2nnc(-c3ccccc3[N+](=O)[O-])o2)c1
Resp: inactive

====

target: UniProt:Q38C91; type: functional, Trypanosoma brucei brucei strain 927/4 GUTat10.1
Sequence (Q38C91 whole entry): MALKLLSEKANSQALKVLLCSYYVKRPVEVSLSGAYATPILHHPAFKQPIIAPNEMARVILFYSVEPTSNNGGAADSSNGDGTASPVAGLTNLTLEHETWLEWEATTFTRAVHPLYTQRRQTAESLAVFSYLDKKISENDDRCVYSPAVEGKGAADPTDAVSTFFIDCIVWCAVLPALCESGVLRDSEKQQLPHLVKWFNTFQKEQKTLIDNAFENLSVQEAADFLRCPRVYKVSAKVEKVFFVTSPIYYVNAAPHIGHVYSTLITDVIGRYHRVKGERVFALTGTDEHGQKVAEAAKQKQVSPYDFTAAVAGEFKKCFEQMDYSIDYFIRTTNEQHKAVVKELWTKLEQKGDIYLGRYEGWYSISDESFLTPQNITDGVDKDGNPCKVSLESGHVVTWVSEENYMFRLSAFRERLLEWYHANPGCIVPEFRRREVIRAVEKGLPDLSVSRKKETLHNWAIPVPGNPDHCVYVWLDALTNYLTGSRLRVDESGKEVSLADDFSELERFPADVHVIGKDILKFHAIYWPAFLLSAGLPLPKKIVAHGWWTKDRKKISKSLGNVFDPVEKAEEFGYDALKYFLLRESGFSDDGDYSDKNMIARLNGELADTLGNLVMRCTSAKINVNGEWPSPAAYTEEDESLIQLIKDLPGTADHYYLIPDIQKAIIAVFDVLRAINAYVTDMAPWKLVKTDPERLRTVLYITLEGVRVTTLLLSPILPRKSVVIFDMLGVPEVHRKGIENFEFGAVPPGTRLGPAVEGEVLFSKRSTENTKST
Activity calls are given as the source filed them.
Outcome (select one): active, inactive

Req: # lookup: test call for CC(CNC(=S)Nc1cc(F)cc(F)c1)CSc1ccc(Cl)cc1 (centres undefined)
Resp: inactive

Req: Recorded test outcome, item O=C(NNC(=O)c1cc(-c2ccc(Cl)c(Cl)c2)nc2ccccc12)Nc1ccccc1
Resp: active

Req: Tell me the assay call for O=c1c(Cc2ccc(Cl)cc2Cl)c(O)ccn1Cc1ccncc1 please.
Resp: inactive

Req: Tell me the assay call for O=C(Nc1ccc(C(=O)O)cc1)/C(=C\C=C\c1ccccc1)NC(=O)c1cccc(Br)c1 please.
Resp: inactive

====

test: inhibitors of SNCA 5'UTR-driven reporter translation, confirmation, H4 neuroglioma cells, luminescence (AID 1988); format: functional, cell-based
Structures can show the parent of a compound that is named as a salt. Calls of active or inactive are those of the source.
Entries annotated with measured EC50

Use the examples below as a reference point.
>>> print(df.to_string())
                                   compound         recorded_value
0  Nc1nc(Cl)nc2c1ncn2[C@H]1C[C@H](O)[C@@H](CO)O1       2.96 µM (active)
1  Nc1[nH]nc2nc(NCc3ccccc3)c3c(c12)CCN(Cc1ccccc1)C3  > 120 µM (not active)
2  O=c1c2c(n3cnnc3n1C1CCCCC1)-c1ccccc1CC21CCCCC1  > 120 µM (not active)
3  COc1ccc(NS(=O)(=O)c2cccc(N3CC(=O)C(c4ccccc4)=C3N)c2)cc1  > 120 µM (not active)
4  CSc1ccc2c(c1)N(CCC1CCCCN1C)c1ccccc1S2 (configuration not stated) [THIORIDAZINE HYDROCHLORIDE]  > 120 µM (not active)
5  COc1ccc(-n2nc3c(N4CCC(C(=O)NCc5ccco5)CC4)nnc(C)c3c2C)cc1  > 120 µM (not active)

From here, focus on the item given below.
Consider CCOc1ccc(NC(=O)c2cc(OC)nc3ccccc23)cc1 . Its measured EC50 is < 0.1 µM (active)

====

test: NIH-3T3 fibroblast cytotoxicity, dose response, cytotoxicity control, cell-based, fluorescence, Alamar Blue, secondary assay (AID 2327); type: functional;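 note: NIH-3T3 mouse fibroblasts cultured with fluconazole at 8 µg/mL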
Activity calls are given as the source filed them.
Answer with one of the outcomes given here: True for active, False for inactive

# example entries with known answers
                                   compound  discrete_label
0  O=C(NNC1=C(C(=O)C(F)(F)F)CCC1)c1ccc(Cl)cc1            True
1  Cc1nn(CC(=O)NCCCc2ccccc2)c(C)c1[N+](=O)[O-]           False
2  O=C(c1ccc(C(=O)N2CCN(c3ccccc3F)CC2)nc1)N1CCN(c2ccccc2F)CC1           False
3  O=[N+]([O-])c1ccc(C[n+]2c(-c3ccccc3)cc(-c3ccccc3)cc2-c2ccccc2)cc1.[O-][Cl+3]([O-])([O-])[O-]            True
4  CCCCC1SC(N/N=C/c2ccco2)=NC1=O (configuration not stated)           False

Would you kindly look at the next entry?
Req: Status in this test for C/C(=N\NC(=O)c1nn(C)c(C)c1Br)c1ccc(NC(=O)C2CCCC2)cc1 ?
Resp: True

====

test: inhibitors of clade B AD8 Env fusion, dose response, cell-based, cherry-pick (AID 652062); assay type: functional;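 note: luciferase signal from cell-cell fusion driven by HIV-1 clade B AD8 Env; potency is for inhibitors of fusion seen as a drop in luminescence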
Active and inactive are the calls of the source.
reported-endpoint: AC50

Some compounds with known AC50 results, for comparison:
compound	AC50
C[C@@H]1O[C@@H](O[C@@H]2C=C3CC[C@@H]4C(CC[C@]5(C)[C@@H](c6ccc(=O)oc6)CC[C@]45O)[C@@]3(C)CC2)[C@H](O)[C@H](O)[C@H]1O (stereo not given in full)	0.54 µM (active)
COc1cccc(-c2nnc3sc(C4CCCCC4)nn23)c1	3.09 µM (active)
CC(C)[C@@H]1CC[C@@H](C)C[C@H]1OC(=O)C[n+]1cc(-c2ccc(Cl)cc2)n2c1CCCCC2	9.97 µM (active)
O=C(O)c1ccc(N/N=C/c2ccc3nccnc3c2)cc1	2.13 µM (active)

Briefly, AC50 measured for CC(C)OP(=O)(Nc1cccc2ccccc12)OC(C)C : 7.86 µM (active)
